Exercise: for every item that follows, state its recorded Efficacy (GABA) %.
TARGET_OF_ASSAY: h-GABA-A α5β3γ2 (Homo sapiens, UniProt P18507+P31644)
Sequence (P31644 32-462): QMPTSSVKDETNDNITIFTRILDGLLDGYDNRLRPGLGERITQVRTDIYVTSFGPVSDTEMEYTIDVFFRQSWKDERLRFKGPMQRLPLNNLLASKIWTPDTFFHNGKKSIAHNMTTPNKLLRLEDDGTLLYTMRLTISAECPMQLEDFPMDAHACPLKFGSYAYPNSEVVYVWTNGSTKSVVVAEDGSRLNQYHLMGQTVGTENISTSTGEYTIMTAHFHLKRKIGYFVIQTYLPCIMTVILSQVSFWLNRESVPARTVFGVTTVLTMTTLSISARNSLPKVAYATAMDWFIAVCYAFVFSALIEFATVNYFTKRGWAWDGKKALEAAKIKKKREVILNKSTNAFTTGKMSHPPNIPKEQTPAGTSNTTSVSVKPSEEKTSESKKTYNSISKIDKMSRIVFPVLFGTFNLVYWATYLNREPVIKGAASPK
Sequence (P28472 26-473 partner): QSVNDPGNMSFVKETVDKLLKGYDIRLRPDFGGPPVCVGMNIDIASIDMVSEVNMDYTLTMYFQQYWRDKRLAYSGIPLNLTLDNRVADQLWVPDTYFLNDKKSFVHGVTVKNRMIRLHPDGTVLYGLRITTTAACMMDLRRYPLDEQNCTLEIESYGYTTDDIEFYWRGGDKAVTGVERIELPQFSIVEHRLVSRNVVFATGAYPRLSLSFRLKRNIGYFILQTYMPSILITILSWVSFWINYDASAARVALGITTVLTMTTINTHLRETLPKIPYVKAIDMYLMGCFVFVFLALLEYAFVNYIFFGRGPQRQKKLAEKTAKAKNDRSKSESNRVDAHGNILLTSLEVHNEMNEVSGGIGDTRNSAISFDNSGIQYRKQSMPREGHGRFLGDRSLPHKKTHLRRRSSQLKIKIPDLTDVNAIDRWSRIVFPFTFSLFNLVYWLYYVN
Sequence (P18507 40-475): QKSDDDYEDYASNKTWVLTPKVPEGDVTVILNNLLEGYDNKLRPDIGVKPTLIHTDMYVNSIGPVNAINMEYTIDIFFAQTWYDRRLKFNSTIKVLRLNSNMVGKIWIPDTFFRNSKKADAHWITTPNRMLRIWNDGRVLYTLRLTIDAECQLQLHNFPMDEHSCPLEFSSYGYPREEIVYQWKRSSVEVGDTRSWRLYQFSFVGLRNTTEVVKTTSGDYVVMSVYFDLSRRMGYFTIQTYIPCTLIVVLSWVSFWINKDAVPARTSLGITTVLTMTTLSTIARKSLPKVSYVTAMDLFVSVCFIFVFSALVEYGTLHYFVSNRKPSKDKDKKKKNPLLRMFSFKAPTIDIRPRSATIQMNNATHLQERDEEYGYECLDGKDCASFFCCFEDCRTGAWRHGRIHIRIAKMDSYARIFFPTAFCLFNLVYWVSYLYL
TEST_DETAILS: Two-electrode voltage clamp electrophysiology in Xenopus laevis oocytes expressing GABAA receptors, modulation of GABA EC20 current
Type: cell-based
Set-up: host or cells: Xenopus laevis oocytes micro-injected with RNA transcripts of the subunits
ASSAY_SETUP: % modulation of GABA EC20 = 100*(Fold increase-1); Table 1
Output spec: scalar in %, unitless text.

What measured Efficacy (GABA) % goes with `COc1cccc(-c2cnn(Cc3c(-c4ccc(C)nc4)noc3C)c(=O)c2)n1` ? 119

What measured Efficacy (GABA) % goes with `Cc1ccc(-c2noc(C)c2Cn2ncc(-c3ccc(OC(F)(F)F)cc3)cc2=O)cn1` ? 81

What measured Efficacy (GABA) % goes with `Cc1ccc(-c2noc(C)c2Cn2ncc(N3CCO[C@@H](C)C3)cc2=O)cn1` ? 189

What measured Efficacy (GABA) % goes with Cc1ccc(-c2noc(C)c2Cn2ncc(N3C[C@@H](C)O[C@H](C)C3)cc2=O)cn1 (single isomer, unassigned) ? 216

What measured Efficacy (GABA) % goes with `Cc1ccc(-c2noc(C)c2Cn2ncc(N3CCC(c4ccnn4C)CC3)cc2=O)cn1` ? 149

What measured Efficacy (GABA) % goes with `Cc1onc(-c2ccc(Cl)nc2)c1Cn1ncc(N2CC(OC3CC3)C2)cc1=O` ? 124

What measured Efficacy (GABA) % goes with `COC1CN(c2cnn(Cc3c(-c4ccc(Cl)nn4)noc3C)c(=O)c2)C1` ? 86

What measured Efficacy (GABA) % goes with `CCOC1CN(c2cnn(Cc3c(-c4ccc(Cl)cc4)noc3C)c(=O)c2)C1` ? 56

What measured Efficacy (GABA) % goes with Cc1ccc(-c2noc(C)c2Cn2ncc(N3CC4(CCC(C(F)(F)F)CO4)C3)cc2=O)nn1 (single isomer, unassigned) [Example 320] ? 226

What measured Efficacy (GABA) % goes with `CO[C@H]1COC2(C1)CN(c1cnn(Cc3c(-c4ccc(C)nc4)noc3C)c(=O)c1)C2` ? 111

What measured Efficacy (GABA) % goes with Cc1ccc(-c2noc(C)c2Cn2ncc(N3C[C@H](C)O[C@@H](C)C3)cc2=O)cn1 (single isomer, unassigned) ? 228

What measured Efficacy (GABA) % goes with `Cc1ccc(-c2noc(C)c2Cn2ncc(N3CC4(CCOCC4)C3)cc2=O)cn1` ? 117

What measured Efficacy (GABA) % goes with Cc1ccc(-c2noc(C)c2Cn2ncc(N3CC4(CC(C(F)(F)F)CCO4)C3)cc2=O)nn1 (single isomer, unassigned) [Example 312] ? 127

What measured Efficacy (GABA) % goes with `Cc1ccc(-c2noc(C)c2Cn2ncc(N3CC(F)C3)cc2=O)cn1` ? 134

What measured Efficacy (GABA) % goes with `Cc1ccc(-c2noc(C)c2Cn2ncc(N3CC(Oc4ccc(C)nn4)C3)cc2=O)cn1` ? 160

What measured Efficacy (GABA) % goes with `CCO[C@H]1CN(c2cnn(Cc3c(-c4ccc(Cl)nc4)noc3C)c(=O)c2)[C@H]1C` ? 124

What measured Efficacy (GABA) % goes with `Cc1onc(-c2ccc(Cl)nc2)c1Cn1ncc(N2C[C@@H](C)O[C@@H](C)C2)cc1=O` ? 247

What measured Efficacy (GABA) % goes with `Cc1ccc(-c2noc(C)c2Cn2ncc(-c3cccc(C#N)n3)cc2=O)cn1` ? 324

What measured Efficacy (GABA) % goes with `Cc1ccc(-c2noc(CF)c2Cn2ncc(N3CC4(CCCCO4)C3)cc2=O)nn1` ? 70

What measured Efficacy (GABA) % goes with `Cc1ccc(-c2noc(C)c2Cn2ncc(N(C)C3CN(C4CC4)C3)cc2=O)cn1` ? 110

What measured Efficacy (GABA) % goes with `Cc1onc(-c2ncc(C(F)(F)F)cn2)c1Cn1ncc(N2CC(OC3CC3)C2)cc1=O` ? 60

What measured Efficacy (GABA) % goes with `COC1CN(c2cnn(Cc3c(-c4ccc(Cl)nc4)noc3C)c(=O)c2)C1` ? 118

What measured Efficacy (GABA) % goes with `COC1CN(c2cnn(Cc3c(-c4ccc(Cl)cc4)noc3C)c(=O)c2)C1` ? 43

What measured Efficacy (GABA) % goes with `CCOC1CN(c2cnn(Cc3c(-c4ccc(C)nc4)noc3C)c(=O)c2Cl)C1` ? 184

What measured Efficacy (GABA) % goes with `COC1(C)CCN(c2cnn(Cc3c(-c4ccc(Cl)nc4)noc3C)c(=O)c2)CC1` ? 216

What measured Efficacy (GABA) % goes with `COc1cc(-c2cnn(Cc3c(-c4ccc(C)nc4)noc3C)c(=O)c2)c(F)cn1` ? 126

What measured Efficacy (GABA) % goes with `CCOC(=O)C1CCN(c2cnn(Cc3c(-c4ccc(C)nc4)noc3C)c(=O)c2)CC1` ? 168

What measured Efficacy (GABA) % goes with `COC1CCN(c2cnn(Cc3c(-c4ccc(C)nc4)noc3C)c(=O)c2)CC1` ? 132

What measured Efficacy (GABA) % goes with `Cc1ccc(-c2noc(C)c2Cn2ncc(N(C)C)cc2=O)cn1` ? 103

What measured Efficacy (GABA) % goes with Cc1ccc(-c2noc(C)c2Cn2ncc(N3CC4(CC(C)CO4)C3)cc2=O)nn1 (single isomer, unassigned) [Example 241] ? 80

What measured Efficacy (GABA) % goes with `Cc1ccc(-c2noc(C)c2Cn2ncc(-c3ccnc(C(F)(F)F)c3)cc2=O)cn1` ? 104

What measured Efficacy (GABA) % goes with Cc1ccc(-c2noc(C)c2Cn2ncc(N3CC4(CC(F)CCO4)C3)cc2=O)cn1 (single isomer, unassigned) [Example 274] ? 110

Reference source: patent US11840528B2
